Entries and their pKi
- System under test: rat mGluR5 (Rattus norvegicus, UniProt P31424)
- Sequence (P31424 21-1203): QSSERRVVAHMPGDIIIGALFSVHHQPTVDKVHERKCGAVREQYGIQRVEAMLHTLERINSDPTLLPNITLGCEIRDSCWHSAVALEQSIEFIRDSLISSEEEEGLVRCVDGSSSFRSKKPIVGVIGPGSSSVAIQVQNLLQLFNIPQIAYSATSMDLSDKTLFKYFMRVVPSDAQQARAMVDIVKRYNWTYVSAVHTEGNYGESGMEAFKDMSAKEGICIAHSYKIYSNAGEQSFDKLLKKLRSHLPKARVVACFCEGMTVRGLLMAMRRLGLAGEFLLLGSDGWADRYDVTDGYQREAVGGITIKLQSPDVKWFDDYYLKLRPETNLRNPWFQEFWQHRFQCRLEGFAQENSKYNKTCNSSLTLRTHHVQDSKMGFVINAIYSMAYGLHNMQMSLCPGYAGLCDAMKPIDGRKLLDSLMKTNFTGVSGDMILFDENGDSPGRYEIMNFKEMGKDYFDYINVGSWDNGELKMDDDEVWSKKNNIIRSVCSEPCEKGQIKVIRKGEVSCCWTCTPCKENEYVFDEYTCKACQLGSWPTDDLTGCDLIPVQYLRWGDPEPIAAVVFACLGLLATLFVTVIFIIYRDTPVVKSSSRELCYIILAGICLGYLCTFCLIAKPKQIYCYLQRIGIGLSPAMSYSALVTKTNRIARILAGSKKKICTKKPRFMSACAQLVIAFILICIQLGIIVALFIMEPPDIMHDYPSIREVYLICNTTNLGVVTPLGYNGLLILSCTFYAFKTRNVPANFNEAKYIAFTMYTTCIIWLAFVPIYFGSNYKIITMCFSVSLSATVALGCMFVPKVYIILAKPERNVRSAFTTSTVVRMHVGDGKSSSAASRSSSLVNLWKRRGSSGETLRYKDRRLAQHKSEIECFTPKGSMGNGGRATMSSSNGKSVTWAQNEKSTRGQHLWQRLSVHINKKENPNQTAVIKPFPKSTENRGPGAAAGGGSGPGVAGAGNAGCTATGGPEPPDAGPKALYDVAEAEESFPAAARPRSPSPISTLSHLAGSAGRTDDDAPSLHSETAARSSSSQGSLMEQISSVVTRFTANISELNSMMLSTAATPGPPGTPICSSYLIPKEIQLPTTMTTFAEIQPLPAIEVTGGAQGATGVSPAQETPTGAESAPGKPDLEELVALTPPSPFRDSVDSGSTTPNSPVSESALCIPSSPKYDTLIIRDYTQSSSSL
pKi: −log10 of the molar value.

>>> reported("COc1ccc(-c2c(S(=O)(=O)c3cc(Cl)cc(Cl)c3)cnc3ccc(F)cc23)cc1 [Compound 125]")
"> 6.70"
>>> reported("O=S(=O)(c1cc(Cl)cc(Cl)c1)c1cnc2cc(F)ccc2c1-c1cccc(Cl)c1 [Compound 156]")
"> 6.70"
>>> reported("O=S(=O)(c1ccc(F)c(Cl)c1)c1cnc2c(F)cccc2c1-c1ccccc1F [Compound 209]")
"> 6.70"
>>> reported("O=S(=O)(c1cc(F)cc(F)c1)c1cnc2ccc(F)cc2c1-c1ccc(Cl)cc1 [Compound 132]")
"6.30 to 6.70"
>>> reported("O=S(=O)(c1ccc(F)c(Cl)c1)c1cnc2c(F)c(Cl)ccc2c1-c1ccc(F)cc1 [Compound 205]")
"> 6.70"
>>> reported("N#Cc1cccc(S(=O)(=O)c2cnc3ccc(F)cc3c2-c2cccc(Cl)c2)c1 [Compound 135]")
"> 6.70"

[ask] # returns recorded pKi (system: rat mGluR5 (Rattus norvegicus, UniProt P31424)) for O=S(=O)(c1ccc(F)cc1)c1cnc2ccc(F)cc2c1-c1ccc(Cl)cc1 [Compound 25]
[reply] 6.30 to 6.70

[ask] Could you share what pKi was measured for Cc1ccc(S(=O)(=O)c2cnc3ccc(F)cc3c2-c2ccc(F)cc2)cc1Cl [Compound 142] , tested on rat mGluR5 (Rattus norvegicus, UniProt P31424)?
[reply] > 6.70

[ask] Enter reported pKi observed with rat mGluR5 (Rattus norvegicus, UniProt P31424) for O=S(=O)(c1cc(Cl)cc(Cl)c1)c1cnc2cc(F)ccc2c1-c1ccc(Cl)cc1 [Compound 157]
[reply] > 6.70

[ask] Missing value: pKi, rat mGluR5 (Rattus norvegicus, UniProt P31424), entry N#Cc1cc(F)cc(S(=O)(=O)c2cnc3c(N)cccc3c2-c2cccc(F)c2)c1 [Compound 279] . Fill in?
[reply] > 6.70

[ask] Record lookup: for rat mGluR5 (Rattus norvegicus, UniProt P31424), what pKi belongs to N#Cc1cc(F)cc(S(=O)(=O)c2cnc3cc(Cl)ccc3c2-c2cccc(F)c2)c1 [Compound 221] ?
[reply] > 6.70

[ask] Checklist item: pKi tested on rat mGluR5 (Rattus norvegicus, UniProt P31424), entry COc1cccc(-c2c(S(=O)(=O)c3ccc(C)c(Cl)c3)cnc3ccc(F)cc23)c1 [Compound 141] , value?
[reply] > 6.70

[ask] // lookup pKi | system=rat mGluR5 (Rattus norvegicus, UniProt P31424) | key= COc1ccc(S(=O)(=O)c2cnc3ccc(F)cc3c2-c2cccc(F)c2)cc1Cl [Compound 79]
[reply] > 6.70

[ask] Param readout= pKi; system= rat mGluR5 (Rattus norvegicus, UniProt P31424); entry= O=S(=O)(c1cc(F)cc(F)c1)c1cnc2cc(F)ccc2c1-c1ccc(Cl)cc1 [Compound 35] ; returns value.
[reply] > 6.70
